# measuredOn: HLA-A*02:01 (Homo sapiens, UniProt P04439, D140Y/D185E/D98H/E176V/E277Q/G131W/G231S/I119V/I121R/I166T/I218V/L300P/L318F/N151K/N90K/P208A/P217A/Q86G/Q94H/R138H/R169H/T345S)
# Construct: made in house
# runDescription: biochemical
# Type: binding
# reportedConditions: HLA allele A0201; peptide detected in HEK293T; IC50 <500 nM indicates binding; read-out: Binding in vitro (IC50, [nM])
Where no end group is shown, it is not given here.
readoutKind: IC50

Quick one: IC50 of GLITLSYHL ?
< 0.5 nM

====

# measuredOn: HLA-A*02:01 (Homo sapiens, UniProt P04439, D140Y/D185E/D98H/E176V/E277Q/G131W/G231S/I119V/I121R/I166T/I218V/L300P/L318F/N151K/N90K/P208A/P217A/Q86G/Q94H/R138H/R169H/T345S)
# Construct: made in house
# runDescription: biochemical
# Assay type: binding
# reportedConditions: read-out: IC50, binding to HLA-A*02:01
Where no end group is shown, it is not given here.
readoutKind: IC50

Quick one: IC50 of GLITLSYHL ?
< 0.5 nM

====

# measuredOn: HLA-A*26:01 (Homo sapiens, UniProt P04439, A114D/A173T/A270S/D101N/D185E/E277Q/E87N/F33Y/G231S/I121R/I218V/K168Q/L180W/L300P/L318F/P208A/P217A/Q86R/Q94H/R138Q/S129P/T187R/T323A/T345S/V100A/V358M)
# runDescription: biochemical
# Type: binding
pIC50: −log10 of the molar value. Where no end group is shown, it is not given here.
readoutKind: pIC50

Quick one: pIC50 of APRITFGGP [Peptide 29] ?
< 4.15

====

# measuredOn: HLA-B*18:01 (Homo sapiens, UniProt P01889, A329T/A93T/A95T/C349S/D201E/D54G/D98Y/E176V/E187T/E204Q/E69T/K202T/Q94N/R155S/R180L/S121R/V306I/Y140S/Y195H/Y33H/Y91S)
# Construct: made in house
# runDescription: biochemical
# Type: binding
Where no end group is shown, it is not given here.
readoutKind: IC50

Quick one: IC50 of APRITFGGP [Peptide 29] ?
> 70 µM

====

# measuredOn: HLA-B*44:02 (Homo sapiens, UniProt P01889, A223V/A65T/A93T/A95T/D201E/D98Y/E176V/E187L/E204Q/E69K/G107R/H137Y/K202T/L105A/L119I/N104T/N87E/Q56L/Q94N/R106L/R155S/R180D/S101N/S121R/S35A/S48T/T118I/V36M/W191S/Y140D/Y91S)
# Construct: made in house
# runDescription: biochemical
# Type: binding
# reportedConditions: synthetic peptide, purified MHC
pIC50: −log10 of the molar value. Where no end group is shown, it is not given here.
readoutKind: pIC50

Quick one: pIC50 of APRITFGGP [Peptide 29] ?
< 4.15

====

# measuredOn: HLA-B*51:01 (Homo sapiens, UniProt P01889, A329T/A93T/A95T/C349S/D138N/D201E/D98Y/E187L/E204Q/E69T/G107R/I218V/K202T/L105A/L119W/N104I/Q94N/R106L/R155S/R180L/S101N/S121T/S35A/S48A/V306I/V36M/Y195H/Y91F)
# Construct: made in house
# runDescription: biochemical
# Assay type: binding
# reportedConditions: synthetic peptide, purified MHC
Where no end group is shown, it is not given here.
readoutKind: IC50

Quick one: IC50 of APRITFGGP [Peptide 29] ?
> 70 µM

====

# measuredOn: HLA-B*15:01 (Homo sapiens, UniProt P01889, A329T/A93T/A95T/C349S/D201E/D98Y/E187L/E204Q/E69M/E70A/K202T/N87E/Q94N/R155S/R180W/S121R/S35A/S48A/V306I/V36M/Y140S/Y91S)
# Construct: made in house
# runDescription: biochemical
# Type: binding
Where no end group is shown, it is not given here.
readoutKind: IC50

Quick one: IC50 of APRITFGGP [Peptide 29] ?
> 70 µM
